# assay_info: reduction of polyQ htt aggregates in cells – imaging, exon1htt(103Q)mCFP cells, high-content imaging, primary screen (AID 483);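 also: compound exposure lasted 3 days before fixation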
# experimental_parameters: exon1htt(103Q)mCFP cell line, aggregate imaging, at 2 µM; stronger effect = higher value
assay_endpoint: inhibition of aggregation (%)
Numbers only here, please. The scale is %.

Some entries whose results are on file:
// `COC(=O)CSC1=NS(=O)(=O)c2ccccc21` : inhibition of aggregation value = 19.6

// `O=C(CN1CCCC1)Nc1ccc(NC(=O)Nc2ccccc2)cc1` : inhibition of aggregation value = 8.5

// CCN1CCCC1CN=Cc1c(O)n(-c2ccccc2)c(=O)c2ccccc12 (configuration not stated) : inhibition of aggregation value = -8.1

// `O=C(O)c1ccc2c3c(ncnc13)-c1ccccc1C2=O` : inhibition of aggregation value = -50.8

// `Cc1cc(C)c(C#N)c(SCc2ccc(C#N)cc2)n1` : inhibition of aggregation value = -4.1

---
// Cc1ccc(CN2C(=O)CCC2C(=O)NC2CCCC2)cc1 (configuration not stated) : inhibition of aggregation value = 6.6

// `COc1ccc(NC(=O)N(C2CCCCC2)C2CCN(C(C)C)CC2)c(OC)c1` : inhibition of aggregation value = -12.8

// `CCOc1ccc2nc(SCC(=O)N3CCCCCC3)c(C#N)cc2c1` : inhibition of aggregation value = -7.9
